# Tested on: A549 NSCLC
# assay name: NCI tumour cell line growth inhibition, 48 h; in the data active = GI50 below about 0.43 µM; inactive = the rest
Pick one and only one: 1.0 = active, 0.0 = inactive

-- ask Outcome logged for COc1ccc2c(c1)CCC1C2CC[C@@]2(C)C1CC[C@@]2(O)CNC(=O)/C=C/c1ccc(O)c(OC)c1 (some centres undefined) in this assay:
-- reply 0.0

-- ask Outcome logged for Oc1ccc2oc3ncc(Cl)c(-c4ccccc4)c3c2c1 in this assay:
-- reply 0.0

-- ask Outcome logged for CC1(C)CCC[C@]23C(=O)O[C@](O)(C(=O)C4=C[C@@](C)(/C=C/CCCc5ccc6ccc7cccc8ccc5c6c78)CC[C@@]42O)[C@@H]13 in this assay:
-- reply 1.0

-- ask Outcome logged for COc1ccc(-c2ccc(/C=C/C(=O)NO)cc2)cc1 in this assay:
-- reply 1.0

-- ask Outcome logged for CC(=O)OCC1OC(OC2C(COC(C)=O)OC(OCCC[S-])C(OC(C)=O)C2OC(C)=O)C(OC(C)=O)C(OC(C)=O)C1OC(C)=O.[Au+].c1ccc(CN2[CH-]N(Cc3ccccc3)C(c3ccccc3)=C2c2ccccc2)cc1 (centres undefined) in this assay:
-- reply 0.0

-- ask Outcome logged for CCN(CC)CCN1C(=O)c2c(c(C)c3c(oc4cc(O)ccc43)c2C)C1=O in this assay:
-- reply 0.0

-- ask Outcome logged for CC(C)C[C@H](NC(=O)[C@H](CCc1ccccc1)NC(=O)CN1CCOCC1)C(=O)N[C@@H](Cc1ccccc1)C(=O)N[C@@H](CC(C)C)C(=O)[C@@]1(C)CO1 in this assay:
-- reply 1.0

-- ask Outcome logged for O=C(/C=C/c1ccc(C(F)(F)F)cc1)c1ccc(Nc2nc(NCCO)nc(NCCO)n2)cc1 in this assay:
-- reply 0.0

-- ask Outcome logged for Cc1ccc2c(c1)C(=O)c1c-2n(CCCN)c(=O)c2cc([N+](=O)[O-])ccc12 in this assay:
-- reply 1.0

The values you see were collected from PubChem BioAssay (NCI).
